For each record, write down the corresponding TGI.
system: MDA-MB-231 breast; assay: NCI tumour cell line growth inhibition, 48 h

Below, 8 compounds whose answers are already recorded.
Nc1c(C(=O)Nc2cccc3ccccc23)sc2nc3c(cc12)CCCCCC3	> 50 µM
Nc1[nH]nc2c1Cc1c(n(Cc3ccc(Cl)cc3)c3ccccc13)C(=O)N2	30.6 µM
C=CCOC1=C(OC(C)=O)C(C2COC(C)(C)O2)OC1=O (configuration not stated)	34.5 µM
O=C(O)c1cccc(F)c1C(=O)c1ccc2ccccc2c1	> 100 µM
COc1cc2c(cc1OC)-c1c(c3ccc([N+](=O)[O-])cc3c(=O)n1CCCBr)C2=O	> 100 µM
Nc1ncnc2c1c(-c1ccc(Oc3ccccc3)cc1)nn2C[C@H]1SSC[C@H]1O	3.71 µM
COc1ccc(OC)c2c1-c1nnnn1CCC2(C)C	> 100 µM
CSc1cc(Cl)c(C)cc1S(=O)(=O)NC(=O)NNc1cnc2ccccc2n1	> 100 µM

I have 4 compounds here; please give me TGI for each one.
1. O=C(/C=C/c1ccco1)c1cccc(Nc2nc(Nc3ccccc3)nc(Nc3ccccc3)n2)c1
2. C[C@H](OC(=O)/C=C/c1ccc(O)c(O)c1)[C@H](C)OC(=O)/C=C/c1ccc(O)c(O)c1
3. FC1(F)SC2CCCCCCCCCCC2C1(F)F (configuration not stated)
4. COC1=C2C[C@](OC)(C#CC=CC#CC2O)CC1(C)C (some centres not stated)

Result:
["> 100 µM", "35.9 µM", "> 100 µM", "> 100 µM"]
